System: U-251
Assay: NCI tumour cell line growth inhibition, 48 h
The source made the active and inactive calls. Rule as the data show it: active = GI50 up to about 1.1 µM and inactive = higher.
# valid calls are yes for active, no for inactive; nothing else

Q: Any idea what this test logged for OCC(O)C(O)C(C=NNc1ncnc2ccc(Br)cc12)=NNc1ncnc2ccc(Br)cc12 (stereo unspecified) ?
A: no

Q: Now this one: CC(=O)C1=C(O)C(N)C2Cc3c(c(O)c4c(O)c(C)ccc4c3C)C(=O)C2(O)C1=O (stereo unspecified)
A: yes

Q: Now this one: COc1cc(-c2ccccc2)cn2c1nc1ccccc12
A: no

Q: Now this one: CC(=O)Nc1ccc(-c2nnc(SCC(=O)Nc3cccc([N+](=O)[O-])c3)o2)cc1
A: no

Q: Now this one: O=C1OC(c2ccccc2)=N/C1=C/NC(Cc1ccc(O)cc1)C(=O)O (stereo unspecified)
A: no

Q: Now this one: CCCC(=O)c1ccc(=O)n(C)c1
A: no

* * *

System: MDA-N
Assay: NCI tumour cell line growth inhibition, 48 h
Activity calls are given as the source filed them. Rule as the data show it: active = GI50 up to about 1.1 µM and inactive = higher.
# valid calls are 1 = active, 0 = inactive; nothing else

Q: Any idea what this test logged for O=C(O)c1ccc(Nc2nc3cc(C(F)(F)F)ccc3n3cccc23)cc1 ?
A: 0

Q: Now this one: CN(C)c1ccc(-c2nc(-c3cc4c(ccc5ccccc54)oc3=O)cs2)cc1
A: 0

Q: Now this one: Nc1ncnn2c(C3OC(CO)C(O)C3O)ccc12 (stereo not drawn)
A: 1

* * *

Test system: NCI/ADR-RES
Experiment: NCI tumour cell line growth inhibition, 48 h
Counter-ions that a name gives are not always drawn. Active and inactive are the calls of the source. Rule as the data show it: active = GI50 up to about 1.1 µM and inactive = higher.
# valid calls are T (active), F (inactive); nothing else

Q: Any idea what this test logged for COc1ccc(N2C(=O)C3c4[nH]c5c(C)cccc5c4C4CCC(C(C)(C)C)CC4C3C2=O)cc1 (configuration not stated) ?
A: F

Q: Now this one: O=C(Nc1sccc1S(=O)(=O)c1ccc(Cl)cc1)c1ccccc1
A: F

Q: Now this one: CCOP(=O)(OCC)c1c(C(=O)OC)cc(=O)[nH]c1-c1ccc(C)cc1
A: F

Q: Now this one: COC(=O)[C@H](Cc1c[nH]c2ccccc12)NC(=O)c1ccc(CNC(=O)/C=C/c2cccc(Oc3ccccc3)c2)cc1
A: F

Q: Now this one: CN(C)C(=S)N/N=C\C=N/NC(=S)N(C)C
A: T

Q: Now this one: COc1ccc2cc(C(=O)Nc3ccc(O)c(C(=O)O)c3)ccc2c1OC
A: F

Q: Now this one: Cc1nnc2n1N=C(c1cc(F)c(Cl)cc1Cl)/C(=C/c1ccc(-c3ccc([N+](=O)[O-])cc3)o1)S2
A: F

Q: Now this one: O=c1[nH]c(=O)n(C2CC(O)C(CO)O2)cc1Oc1ccccc1 (configuration not stated)
A: F

Q: Now this one: Cc1c(C)c(S(=O)(=O)N(CCCN)OCCCN)c(C)c2c1OC(C)(C)CC2
A: F

Q: Now this one: COc1ccc(/N=N/c2c(C)c(C#N)c(=S)n(C3OC(COC(C)=O)C(OC(C)=O)C(OC(C)=O)C3OC(C)=O)c2-c2ccccc2)cc1 (configuration not stated)
A: F

Q: Now this one: CC(C(=O)O)/C(=C\c1ccc2c(c1)OCO2)C(=O)O (configuration not stated)
A: F

Q: Now this one: CCC/C=C/C=C/C(=O)OC1C(C)C2(O)C3C=C(C)C(=O)C3CC(COC(C)=O)=CC2C2C(C)(C)C12OC(=O)C(C)C (configuration not stated)
A: F

Q: Now this one: CCOC(=O)Cn1c(C(F)(F)F)nc2nc(Cl)c(Cl)nc21
A: F

Q: Now this one: Oc1ccc(-c2ccccc2)nn1
A: F

Q: Now this one: N=c1c2c(=S)n(-c3ccccc3)c(=S)n(-c3ccccc3)c2nc(SCCN2CCOCC2)n1-c1ccccc1
A: F

Q: Now this one: Oc1cccc(/C=N/N=c2/[nH][nH]/c(=N/N=C/c3cccc(O)c3)c3ccccc23)c1
A: F

Q: Now this one: Cc1ccc(S(=O)(=O)N2CCSCCSCCSCCN(S(=O)(=O)c3ccc(C)cc3)CC2)cc1
A: F

Q: Now this one: COc1cc(-c2c3c(cc4c2OCO4)[C@@H](Nc2ccc4c(c2)Cc2cc(N[C@@H]5c6cc7c(cc6C(c6cc(OC)c(O)c(OC)c6)[C@H]6C(=O)OC[C@H]56)OCO7)ccc2-4)[C@H]2COC(=O)[C@@H]2C3)cc(OC)c1O (some centres not stated)
A: F

Q: Now this one: O=C(/C=C/c1ccc([N+](=O)[O-])cc1)N1CCN(CCOC(c2ccc(F)cc2)c2ccc(F)cc2)CC1
A: F

Q: Now this one: O=c1[nH]c2cc(C(F)(F)F)ccc2nc1Cc1ccccc1
A: F

Q: Now this one: CCCCCCCCCc1c(Cl)nc(Cl)nc1Cl
A: F

Q: Now this one: O=C(NCc1ccccc1)c1cc2ccccc2o/c1=N\c1ccccc1F
A: F

Q: Now this one: CCC1([N+](=O)[O-])CC2C=CC1C2 (configuration not stated)
A: F

Q: Now this one: COC(=O)[C@]12CC=C3O[C@@H]4OC5(CCCCC5)O[C@@H]4[C@H]3C1C(=O)C=CC2=O (some centres not stated)
A: F

Q: Now this one: COC(=O)[C@H](COC(C)(C)C)NC(=O)N[C@H](C)c1ccccc1
A: F

Q: Now this one: CCOc1cc(/C=N/c2ccc(Oc3ccc(Cl)cc3)c(Cl)c2)ccc1O
A: F

Q: Now this one: CCOC(=O)N1CC2(C)C=CC1C(C(=O)OC)C2 (configuration not stated)
A: F

Q: Now this one: COc1ccc(CNc2nc(NCc3ccc(OC)cc3)nc(Nc3ccccc3)n2)cc1
A: F

Q: Now this one: CC[C@H](C)[C@H]1NC(=O)[C@@H](NC(=O)[C@@H](CC(C)C)N(C)C(=O)C2CCCN2C(=O)[C@H](C)O)[C@@H](C)OC(=O)[C@H](Cc2ccccc2)N(C)C(=O)[C@@H]2CCCN2C(=O)[C@H](CC(C)C)NC(=O)[C@@H](C)C(=O)[C@H](C(C)C)OC(=O)C[C@@H]1O (some centres not stated)
A: T

Q: Now this one: CN(C)CCOc1ccc(/C(=C(/CCCl)c2ccccc2)c2ccccc2)cc1 [TOREMIFENE CITRATE]
A: F

Q: Now this one: Cn1c(=O)c2[nH]c(N=O)nc2n(C)c1=O
A: F

Q: Now this one: CC(C)CCCC(C)[C@H]1CC[C@H]2NCCCC[C@]12C (some centres not stated)
A: F

Q: Now this one: O=C(CCc1cc(O)cc(O)c1)NCCc1cc(OCc2ccccc2)cc(OCc2ccccc2)c1
A: F

Q: Now this one: C=C(C)[C@@H]1CC[C@]2(C(=O)O)CC[C@]3(C)[C@H](CC[C@@H]4[C@@]5(C)CC(=O)C(C)(C)[C@@H]5CC[C@]43C)[C@@H]12
A: F

Q: Now this one: CCOC(=O)CC/C(=N/Nc1ccc(Cl)cc1[N+](=O)[O-])C(=O)OCC
A: F

Q: Now this one: CCCc1cc(COC)c(C#N)c(O)n1
A: F

Q: Now this one: CC/C(N)=N\NC(=O)OC(C)(C)C
A: F

* * *

Tested on: SNB-19
Experiment: NCI tumour cell line growth inhibition, 48 h
Calls of active or inactive are those of the source. Cut-off read from the data, not from the text of the source: active = GI50 up to about 1.1 µM and inactive = higher.
measurement.label: GI50

Q: Entry under review: O=S1(=O)OCCOS(=O)(=O)C1Br . Reported GI50?
A: 64.9 µM (inactive)

Q: Now this one: COC(=O)C1(C(C)C)CCc2c(OC)ccc(OC)c2C1=O (stereo not drawn)
A: > 100 µM (inactive)

Q: Now this one: COc1ccc(OC)c2c(=S)c3ccccc3[nH]c12
A: > 100 µM (inactive)

Q: Now this one: Cc1cc2c(cc1C)[n+]([O-])c(C(=O)/C=C/c1ccccc1Cl)c(C)[n+]2[O-]
A: 43.2 µM (inactive)

Q: Now this one: CC1CC/C(=C\c2ccc(F)cc2)C(=O)/C1=C/c1ccc(F)cc1 (stereo not drawn)
A: 10.1 µM (inactive)

Q: Now this one: O=c1c2ccccc2c2c1c1c3ccccc3c(=O)c1c1c3ccccc3c(=O)c21
A: > 100 µM (inactive)

Q: Now this one: CC(C)(C)OC(=O)NC(Cc1ccc(OCc2ccccc2)cn1)C(N)=O (stereo not drawn)
A: > 100 µM (inactive)

Q: Now this one: O=C(CC(=O)C(=O)CC(=O)OCc1ccccc1)OCc1ccccc1
A: 43.4 µM (inactive)

* * *

Test system: RXF 393
Experiment: NCI tumour cell line growth inhibition, 48 h
Calls of active or inactive are those of the source. Rule as the data show it: active = GI50 up to about 1.1 µM and inactive = higher.
measurement.label: GI50

Q: Entry under review: CCOP(=O)(Nc1ccc(-c2ccccc2)cc1)OCC . Reported GI50?
A: 34.6 µM (inactive)

Q: Now this one: N=C(N)c1ccc(C(NC(=O)CNS(=O)(=O)c2ccc3ccccc3c2)P(=O)(Oc2ccccc2)Oc2ccccc2)cc1 (stereo not given)
A: > 100 µM (inactive)

Q: Now this one: COc1ccc(/N=N/c2c(C)c(C#N)c(=S)n(C3OC(COC(C)=O)C(OC(C)=O)C(OC(C)=O)C3OC(C)=O)c2-c2ccccc2)cc1 (stereo not given)
A: 11.5 µM (inactive)

Q: Now this one: OC1=CN=C(C2CC2)Oc2ccccc21
A: > 100 µM (inactive)

Q: Now this one: CCO/N=C(/N)c1ncn(Cc2ccccc2)c1NCC(OCC)OCC
A: 29.2 µM (inactive)
